Hi there, I'd appreciate the recorded growth for every entry that follows.
System: T-47D breast
assay text: NCI-60 one-dose screen, 48 h (100 = growth as untreated, 0 = no growth, -100 = all killed)
particulars: 10 µM unless noted
This is part of a sample that, as a whole, favours compounds with a hit. Of some 83,000 tested, about 20% had one in any assay. Active and inactive are the calls of the source. The calls were made as follows: active = growth percent below 10; inactive = the rest.

CC(C)C1C2=C(NCCN1C(=O)c1ccncc1)C(C)(C)N(Cc1ccccc1)C2=O (stereo unspecified) yielded growth of 103% (inactive)

Entry under test: CC(C)Cc1nc(Nc2ccccc2)[nH]c(=O)c1C#N . Its growth was 40.8% (inactive)

// field: growth; key: c1ccc(-c2ccc3c(c2)C2(CCNCC2)CN3)cc1 ; value = 80.3% (inactive)

Record summary for Cc1ccc(OCCOCCOCCOc2ccc(C)n(O)c2=S)c(=S)n1O : reported growth = 14% (inactive)

For Cc1cc(C(=O)CCCC(=O)c2cc(C)c(O)c(C)c2)cc(C)c1O the molecule record lists growth as 84.6% (inactive)

The recorded growth for entry O=C(/C=C/c1ccccc1)N(C1CCCCC1)C1CCCCC1 equals 69.2% (inactive)

What the record says about Cc1ccc(S(=O)(=O)N2CCCN(c3nc(-c4ccccc4)nc4nc(-c5ccccc5)oc34)CC2)cc1 : growth is 90.8% (inactive)

growth reported for this molecule COc1cc([C@@H](CCO)C[C@H](C)c2ccc3ccccc3c2)cc(OC)c1OC : 45.3% (inactive)

Field growth (entry COc1cc2c(cc1-c1c(C)noc1C)ncc1nc(CN3CCOCC3)n([C@H](C)COC(F)F)c12 ) reads 13% (inactive)

So for O=[N+]([O-])c1ccccc1Nc1ccc2ccccc2c1 , the logged growth turned out to be 91.1% (inactive)

CC/C(=C(\c1ccc(Cl)cc1)c1ccc(OCCN2CCCCC2)cc1)c1ccc(O)cc1 has a reported growth of 4.66% (active)

Given item CCN(CC)CCCNc1cc(OC)c(OC)c2cccnc12 , the value recorded as its growth is 33.8% (inactive)

In plain terms, N#Cc1c(-c2ccccc2)nc2c(c(-c3ccc(Cl)cc3)nn2-c2ccccc2)c1-c1ccc([N+](=O)[O-])cc1 has a documented growth of 90.2% (inactive)

Record CCCCCc1ccc(S(=O)(=O)Nc2ccc3nc(N)oc3c2)cc1 . Reported growth: 36.1% (inactive)

// Cc1c2ccccc2nc2cc3c(cc12)[C@H]1CC[C@]2(C)C(=O)CC[C@H]2[C@@H]1CC3 : growth value = 103% (inactive)

For reference, reported growth for CSc1nc(-c2ccco2)c(C#N)c(=O)n1C stands at 107% (inactive)

// CC/C(=C(/c1ccc(O)cc1)c1ccc(OCCN2CCCCC2)cc1)c1ccc(OC)cc1 : growth value = 43.4% (inactive)

growth recorded for this molecule, CCCc1cc(=O)oc2c(C(=O)CC(C)C)c(O)c(CC=C(C)C)c(O)c12 , is 13.5% (inactive)

Reported growth for COc1cc(C=Nc2oc(-c3ccccc3)c(-c3ccccc3)c2C#N)cc(CN2CCCC2)c1O was 85.7% (inactive)

Item: CCCOC(=O)Nc1nc2ccc(SCC)cc2s1 | growth: 84.8% (inactive)

// recorded growth for N=C(N)c1ccc(-c2ccc(-c3ccccc3)o2)o1 : 32.8% (inactive)

----------
System: NCI/ADR-RES ovarian
assay text: NCI-60 one-dose screen, 48 h (100 = growth as untreated, 0 = no growth, -100 = all killed)
particulars: 10 µM unless noted
This is part of a sample that, as a whole, favours compounds with a hit. Of some 83,000 tested, about 20% had one in any assay.
measured metric: growth (%)
Field format: number, assumed %, no unit text.

growth reading for CCOC(=O)c1nnn(Cc2cc(=O)oc3ccc(O)cc23)c1C : 108

Lookup result for COCCn1cc(-c2csc(-c3c[nH]c4ccc(F)cc34)n2)c2cccnc21 ; measured growth: 7.39

Form field growth, entry c1ccc(-c2c(-c3ccccc3)[n+](Cc3ccc4ccccc4c3)cn2Cc2ccc3ccccc3c2)cc1 : 70.5

Documented growth of Cc1cc(O)cc(-c2nn(C)cc2-c2cc(N3CCOCC3)nc(-c3cccnc3)n2)c1 : 45.9

Record summary for N#Cc1c(-c2ccccc2)cc(-c2ccccc2)n(CCCCC(=O)NO)c1=O : reported growth = -16.2

----------
System: SK-MEL-2 melanoma
assay text: NCI-60 one-dose screen, 48 h (100 = growth as untreated, 0 = no growth, -100 = all killed)
particulars: 10 µM unless noted
About 83,000 compounds went through this panel and 20% of them were active in at least one assay; those are over-represented in the sample as a whole.
Give growth for every item shown.
Enter your answer as a number in %; do not include the unit.

// field: growth; key: c1cc(OCCN2CCCCCC2)ccc1CNc1ccc2nc(CCC3CCCCC3)[nH]c2c1 ; value = 75

Input Cc1cccc(NC(=O)N/C(N)=N/c2nc3ccccc3s2)c1 . Output growth: 33

Looking up Nc1ncccc1O , I see its growth listed as 17.3

growth recorded for this compound, COc1cc(/C=C2\C(=O)N(CCCOc3cc(O)c4c(=O)cc(-c5ccccc5)oc4c3)c3ccccc32)cc(OC)c1O , is 81.1

The recorded growth for Nc1nc(N)c2c(n1)NC(c1cccc(Nc3ccnc4cc(C(F)(F)F)ccc34)c1)CC(c1ccc3c(c1)OCO3)=N2 (centres undefined) is 61.6

# compound CCOC(=O)C1=C(c2ccccc2)N=C2N(c3ccccc3)N=C(C(C)=O)N2C1c1ccc(F)cc1 (centres undefined) ; its growth = 112

# growth (compound: CCCCC#Cc1c(I)n(C2OC(CO[Si](C)(C)C(C)(C)C)C3OC(C)(C)OC32)c(=O)n(C(=O)c2ccccc2)c1=O (centres undefined) ) is 43

Briefly, growth measured for COc1cc2c(c(OC)c1OC)C(=O)CC(c1cccc(C(=O)Nc3ccc(C#N)cc3)c1)O2 (centres undefined) : 74.6

Measured growth, COc1cccc(CNc2c3ccccc3nc3ccccc23)c1OC : 79.2

----------
Test system: SK-MEL-2 melanoma
assay text: NCI-60 one-dose screen, 48 h
particulars: 10 µM unless noted
About 83,000 compounds went through this panel and 20% of them were active in at least one assay; those are over-represented in the sample as a whole. Activity calls are given as the source filed them. How the source made its calls: active means growth percent below 10; inactive means the rest.
Write down the outcome that applies. Available outcomes: active, inactive

Hi team, can someone confirm the assay call for COC(=O)Cn1c2c(c3c(OC)cccc31)C(=O)c1ccccc1-2 ?
inactive

Recorded call for O=C(N/N=C/c1ccc(Cl)cc1)c1ccc(NC(=O)c2ccccn2)cc1 ?
inactive

Just curious, what result did CN(C)CCCn1c2c(c3cnccc3c1=O)C(=O)c1ccccc1-2 get here?
active

Status in this test for Cc1ccc(S(=O)(=O)N2CCCN(c3nc(-c4ccccc4)nc4nc(-c5ccccc5)oc34)CC2)cc1 ?
inactive

Could you check what this test reported for O=C1/C(=C/c2ccc(Cl)cc2)CN(C(=O)C(Cl)Cl)C/C1=C\c1ccc(Cl)cc1 ?
active

Which outcome was entered for the compound C=C[C@@]1(C)CC(=O)[C@@H](C(C)(C)c2cn(C)c3ccc(Br)cc23)C[C@@H]1O[Si](C)(C)C(C)(C)C in this test?
inactive

Write down the call the test reported for this compound. Item: CC(=O)c1ccc(-n2cc(CN3CCN(c4cc5c(cc4F)c(=O)c(C(=O)O)cn5C4CC4)CC3)nn2)cc1
inactive

What is the recorded call for this compound in the test? Oc1nc(NCc2ccccc2)sc1/C=C1\C=Nc2ncccc21
inactive

Hi, do you know how NC(=O)c1ccccc1OCC(=O)Nc1ccc(Cl)c(Cl)c1 came out in this test?
inactive

----------
Test system: SF-268 CNS
assay text: NCI-60 one-dose screen, 48 h (100 = growth as untreated, 0 = no growth, -100 = all killed)
particulars: 10 µM unless noted
This is part of a sample that, as a whole, favours compounds with a hit. Of some 83,000 tested, about 20% had one in any assay.
measured metric: growth (%)
Write the value in % as a bare number.

What the record says about C=CCN=c1sc(-c2ccc3ccccc3c2)cn1NC(=O)c1cc2ccc1CCc1ccc(cc1)CC2 : growth is 62.3

What the record says about C=C(C)[C@@H]1CC[C@]2(C(=O)N3CCN(C)CC3)CC[C@]3(C)[C@H](CC[C@@H]4[C@@](C)(CCC(=O)O)[C@H](C(=C)C)CC[C@]43C)[C@@H]12 : growth is 80.6

Record Cc1cc(C(=O)CCCC(=O)c2cc(C)c(O)c(C)c2)cc(C)c1O , field growth: 99

Notebook: CCCCn1c(NC(C)=O)c(S(=O)(=O)c2ccccc2)c2nc3ccccc3nc21 , growth read as 96.7

// growth value for O=C(/C=C/c1ccccc1Cl)c1cccc(OCCCCOc2cccc(C(=O)/C=C/c3ccccc3Cl)c2)c1 : 106

Lab note: CC(O)CNC(Cc1ccccc1)c1ccc2c(c1)OCO2 (stereo unspecified) gave growth of 95.9

Lab note: COc1ccc(-c2cc(-c3cn(-c4cccc(Cl)c4)nc3-c3ccc(OC)cc3)on2)cc1 gave growth of 108

Entry Cc1cc(NCCCNc2ccnc3cc(Cl)ccc23)nc(Nc2ccc(C(=O)N3CCCCC3)cc2)n1 — recorded growth = 10.2

// field: growth; key: CCOC(=O)c1c(C)nc2ccccc2c1/C=C/c1ccc(F)cc1 ; value = 85.2

// recorded growth for CCOc1ccc(NC(=O)Nc2ccc(OCC)cc2)cc1 : 104

growth measured on CC(C)=CC(=O)N[C@H]1CC[C@]2(C)C3CC[C@]4(C)C(C(C)N(C)C)=CCC4C3CCC2[C@H]1O (stereo partly specified) = 9.05

Per the record, N=C(N)c1ccc(-c2ccc(-c3ccccc3)o2)o1 has growth of 38.1

response.value for COC12C=C/C(=C(/C(=O)OCc3csc(SC)n3)C(=O)CCCCCCCCC3(OC)C=C/C(=C(/C(=O)OCc4cnc(SC)s4)C(=O)CCCCCCCC1)O3)O2 (stereo unspecified) (field: growth) = 44.7

Sample O=C1CCCCN1c1ccc(C2=NCCCN2)cc1 ; growth observed: 92

// CCN(CC)CCN1C(=O)c2c(c3c4ccccc4[nH]c3c3ccc4ccccc4c23)C1=O : growth value = -45

Just so you know, measured growth for O=C(NCCNC(c1ccccc1)C(NCCNC(=O)c1ccccc1)c1ccccc1)c1ccccc1 (stereo unspecified) came out at 99.7

These entries and their values trace back to PubChem BioAssay (NCI).
